Molecular target: UniProtKB P00374
Sequence (P00374 whole entry): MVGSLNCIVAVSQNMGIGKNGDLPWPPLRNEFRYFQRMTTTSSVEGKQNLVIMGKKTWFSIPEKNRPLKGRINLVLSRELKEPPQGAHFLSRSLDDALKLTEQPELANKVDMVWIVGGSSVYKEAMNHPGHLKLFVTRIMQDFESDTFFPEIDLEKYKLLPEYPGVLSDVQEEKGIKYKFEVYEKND
Assay: Inhibitory activity against recombinant human dihydrofolate reductase
pIC50: −log10 of the molar value.
readout.type: pIC50

{"columns": ["molecule.smiles", "readout.type", "value.observed"],
 "data": [
  ["CCC(CC)n1ccc2c3c(N)nc(N)nc3ccc21", "pIC50", 8.18]
]}
